Here the recorded IC50 is given for each entry.
Target: UniProt Q9BQ50
Sequence (Q9BQ50 whole entry, the tested form may be a part): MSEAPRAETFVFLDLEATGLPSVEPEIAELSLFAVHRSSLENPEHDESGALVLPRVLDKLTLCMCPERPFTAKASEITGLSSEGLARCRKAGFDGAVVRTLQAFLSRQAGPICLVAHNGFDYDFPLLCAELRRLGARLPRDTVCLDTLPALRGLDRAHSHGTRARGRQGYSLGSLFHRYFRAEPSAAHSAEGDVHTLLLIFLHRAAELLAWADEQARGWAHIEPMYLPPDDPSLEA
Test: TREX2 Biochemical Assay (fluorescence assay measuring degradation of dsDNA substrate)
Settings: 2.5 nM TREX2, 60 nM dsDNA substrate, 25 minutes at room temperature
Procedure: Degradation of the dsDNA liberates free fluorophore to produce a fluorescent signal. […] After a 5-minute incubation at room temperature, plates were read in a laser sourced Envision (Perkin-Elmer), measuring fluorescence at 615 nm following excitation w/570 nm light. […]
quantity kind: IC50

compound: Cn1c(-c2cc(Br)ccc2OCCO)nc(C(=O)Nc2cnoc2)c(O)c1=O
assayed system: UniProt Q9BQ50
endpoint result: 1 to 10 µM

compound: C[C@H]1CC[C@H](c2nc(C(=O)Nc3cnoc3)c(O)c(=O)n2C)CN1C(=O)c1ccc(Cl)c(Cl)c1
assayed system: UniProt Q9BQ50
endpoint result: 1 to 10 µM

compound: Cn1c(N2CCCC[C@@H]2CCO)nc(C(=O)Nc2cnoc2)c(O)c1=O
assayed system: UniProt Q9BQ50
endpoint result: 1 to 10 µM

compound: Cn1c(C2CCCN(C(=O)c3cncnc3)C2)nc(C(=O)Nc2cnoc2)c(O)c1=O (stereo not drawn)
assayed system: UniProt Q9BQ50
endpoint result: 1 to 10 µM

compound: Cc1ccc(Br)cc1-c1nc(C(=O)Nc2cnoc2)c(O)c(=O)n1C
assayed system: UniProt Q9BQ50
endpoint result: 1 to 10 µM

compound: Cn1c(C2CCC2)nc(C(=O)Nc2cnoc2)c(O)c1=O
assayed system: UniProt Q9BQ50
endpoint result: 10 to 100 µM

compound: Cn1c([C@H]2CCCN(S(=O)(=O)c3ccc(Cl)c(Cl)c3)C2)nc(C(=O)Nc2cnoc2)c(O)c1=O
assayed system: UniProt Q9BQ50
endpoint result: 10 to 100 µM

compound: Cn1c(-c2ccccc2N[C@H]2C[C@@H](O)C2)nc(C(=O)Nc2cnoc2)c(O)c1=O
assayed system: UniProt Q9BQ50
endpoint result: 10 to 100 µM

compound: Cn1c(C2CN(C(=O)OC(C)(C)C)C2)nc(C(=O)Nc2cnoc2)c(O)c1=O
assayed system: UniProt Q9BQ50
endpoint result: > 100 µM

compound: Cn1c(C2(c3ccccc3)CC2)nc(C(=O)Nc2cnoc2)c(O)c1=O
assayed system: UniProt Q9BQ50
endpoint result: 10 to 100 µM

compound: Cn1c(C2CC2)nc(C(=O)Nc2cnoc2)c(O)c1=O
assayed system: UniProt Q9BQ50
endpoint result: 10 to 100 µM

compound: Cn1c(C2CCCN(S(=O)(=O)c3ccccc3)C2)nc(C(=O)Nc2cnoc2)c(O)c1=O (stereo not drawn)
assayed system: UniProt Q9BQ50
endpoint result: 10 to 100 µM

compound: Cn1c(C2CCCN(C(=O)CCc3ccccc3)C2)nc(C(=O)Nc2cnoc2)c(O)c1=O (stereo not drawn)
assayed system: UniProt Q9BQ50
endpoint result: 1 to 10 µM

compound: Cn1c(N2CC[C@H](c3ccccc3)C2)nc(C(=O)Nc2cnoc2)c(O)c1=O
assayed system: UniProt Q9BQ50
endpoint result: 10 to 100 µM

compound: Cn1c(C2CCCN(C(=O)C3CCC(=O)NC3)C2)nc(C(=O)Nc2cnoc2)c(O)c1=O (stereo not drawn)
assayed system: UniProt Q9BQ50
endpoint result: 10 to 100 µM

compound: Cn1nnc(-c2nc(C(=O)Nc3cnoc3)c(O)c(=O)n2C)c1CCO
assayed system: UniProt Q9BQ50
endpoint result: 10 to 100 µM

compound: Cn1c(CC2CCN(C(=O)OC(C)(C)C)CC2)nc(C(=O)Nc2cnoc2)c(O)c1=O
assayed system: UniProt Q9BQ50
endpoint result: 10 to 100 µM

compound: COc1ccc(C(=O)N2CCCC(c3nc(C(=O)Nc4cnoc4)c(O)c(=O)n3C)C2)cc1 (stereo not drawn)
assayed system: UniProt Q9BQ50
endpoint result: 1 to 10 µM

compound: Cn1c(-c2ccccc2-c2cccnc2)nc(C(=O)Nc2cnoc2)c(O)c1=O
assayed system: UniProt Q9BQ50
endpoint result: 10 to 100 µM

compound: Cc1cc(C(=O)O)cc(-c2nc(C(=O)Nc3cnoc3)c(O)c(=O)n2C)c1
assayed system: UniProt Q9BQ50
endpoint result: 1 to 10 µM

compound: CC(C)CNC(=O)N1CCCC(c2nc(C(=O)Nc3cnoc3)c(O)c(=O)n2C)C1 (stereo not drawn)
assayed system: UniProt Q9BQ50
endpoint result: 10 to 100 µM

compound: Cn1c(C2(Cc3ccccc3)CCCN(C(=O)OC(C)(C)C)C2)nc(C(=O)Nc2cnoc2)c(O)c1=O (stereo not drawn)
assayed system: UniProt Q9BQ50
endpoint result: 10 to 100 µM

compound: Cn1c([C@H]2CCN(C(=O)c3ccc(Cl)cc3)C2)nc(C(=O)Nc2cnoc2)c(O)c1=O
assayed system: UniProt Q9BQ50
endpoint result: 10 to 100 µM

compound: Cn1c(-c2ccc(Br)cc2)nc(C(=O)Nc2cnoc2)c(O)c1=O
assayed system: UniProt Q9BQ50
endpoint result: 10 to 100 µM

compound: CC(C)(C)OC(=O)N1CCCC(c2nc(C(=O)Nc3cnoc3)c(O)c(=O)[nH]2)C1 (stereo not drawn)
assayed system: UniProt Q9BQ50
endpoint result: 10 to 100 µM

compound: Cn1c(-c2ccccn2)nc(C(=O)Nc2cnoc2)c(O)c1=O
assayed system: UniProt Q9BQ50
endpoint result: > 100 µM

compound: Cn1c(C2CCCN(CC(F)(F)F)C2)nc(C(=O)Nc2cnoc2)c(O)c1=O (stereo not drawn)
assayed system: UniProt Q9BQ50
endpoint result: 10 to 100 µM

----------
Here the recorded pIC50 is given for each entry.
Biological target: full length human TREX1 (Homo sapiens (Human), UniProt Q9NSU2)
Sequence (Q9NSU2 whole entry): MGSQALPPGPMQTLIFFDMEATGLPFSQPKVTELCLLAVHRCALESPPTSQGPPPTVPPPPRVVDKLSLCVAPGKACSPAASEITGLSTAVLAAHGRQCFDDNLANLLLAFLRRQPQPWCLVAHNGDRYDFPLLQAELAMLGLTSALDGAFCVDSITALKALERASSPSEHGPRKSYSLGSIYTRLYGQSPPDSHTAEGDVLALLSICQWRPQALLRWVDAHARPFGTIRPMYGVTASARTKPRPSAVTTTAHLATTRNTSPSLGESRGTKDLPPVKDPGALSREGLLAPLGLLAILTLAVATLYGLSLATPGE
Assay: TREX1 Biochemical Assay (fluorescence assay measuring degradation of dsDNA substrate)
Conditions: 150 pM TREX1, 60 nM dsDNA substrate, 25 minutes at room temperature
pIC50: −log10 of the molar value.
quantity kind: pIC50

molecule: Cn1c(-c2ccccc2)nc(C(=O)Nc2cnoc2)c(O)c1=O
endpoint result: 6.00 to 7.00
--
molecule: Cn1c(C2CCCN(C(=O)c3ccccc3Cl)C2)nc(C(=O)Nc2cnoc2)c(O)c1=O (stereo not shown)
endpoint result: 6.00 to 7.00
--
molecule: Cn1c(C2CCCN(S(=O)(=O)c3ccccc3)C2)nc(C(=O)Nc2cnoc2)c(O)c1=O (stereo not shown)
endpoint result: 6.00 to 7.00
--
molecule: Cn1c([C@@H]2CCCN(C(=O)c3ccc(Cl)c(Cl)c3)C2)nc(C(=O)Nc2cnoc2)c(O)c1=O
endpoint result: > 7.00

----------
Biological target: UniProt Q9NSU2
Experiment: TREX1 Biochemical Assay (fluorescence assay measuring degradation of dsDNA substrate)
Conditions: 150 pM TREX1, 60 nM dsDNA substrate, 25 minutes at room temperature

compound: Cn1c(N2CCC[C@H](C(N)=O)C2)nc(C(=O)Nc2cnoc2)c(O)c1=O [Example 119]
assayed system: UniProt Q9NSU2
IC50: 100 to 1000 nM
//
compound: Cn1c(-c2cc(Br)ccc2OCCO)nc(C(=O)Nc2cnoc2)c(O)c1=O [Example 70]
assayed system: UniProt Q9NSU2
IC50: < 100 nM
//
compound: CC(C)(C)OC(=O)N1CCCC(c2nc(C(=O)Nc3cnoc3)c(O)c(=O)[nH]2)C1 (stereo not drawn) [Example 16]
assayed system: UniProt Q9NSU2
IC50: 100 to 1000 nM

----------
Target: full length human TREX1 (Homo sapiens (Human), UniProt Q9NSU2)
Experiment: TREX1 Biochemical Assay (fluorescence assay measuring degradation of dsDNA substrate)
Conditions: 150 pM TREX1, 60 nM dsDNA substrate, 25 minutes at room temperature
Method: Degradation of the dsDNA liberates free fluorophore to produce a fluorescent signal. […] After a 5-minute incubation at room temperature, plates were read in a laser sourced Envision (Perkin-Elmer), measuring fluorescence at 615 nm following excitation w/570 nm light. […]
Here the recorded IC50 is given for each entry.
quantity kind: IC50

molecule: Cn1c(C2CCCN(C(=O)Cc3ccccc3)C2)nc(C(=O)Nc2cnoc2)c(O)c1=O (stereo not drawn) [Example 61]
endpoint result: 100 to 1000 nM

molecule: Cn1c(-c2ccccc2Br)nc(C(=O)Nc2cnoc2)c(O)c1=O [Example 9]
endpoint result: 100 to 1000 nM

molecule: Cn1c(CC2CCN(C(=O)OC(C)(C)C)CC2)nc(C(=O)Nc2cnoc2)c(O)c1=O [Example 17]
endpoint result: 1000 to 10000 nM

molecule: COc1ccccc1C(=O)N1CCCC(c2nc(C(=O)Nc3cnoc3)c(O)c(=O)n2C)C1 (stereo not drawn) [Example 41]
endpoint result: 100 to 1000 nM

molecule: Cn1c(C2CCCN(C(=O)Nc3ccccc3)C2)nc(C(=O)Nc2cnoc2)c(O)c1=O (stereo not drawn) [Example 65]
endpoint result: 100 to 1000 nM

molecule: Cn1nnc(-c2nc(C(=O)Nc3cnoc3)c(O)c(=O)n2C)c1CCO [Example 74]
endpoint result: 1000 to 10000 nM

molecule: Cn1c(Cc2ccccn2)nc(C(=O)Nc2cnoc2)c(O)c1=O [Example 26]
endpoint result: 1000 to 10000 nM

molecule: Cn1c(C2CCCN(CCc3ccccc3)C2)nc(C(=O)Nc2cnoc2)c(O)c1=O (stereo not drawn) [Example 129]
endpoint result: > 10000 nM

molecule: Cn1c(N2CCC[C@@H]2c2ccccc2Cl)nc(C(=O)Nc2cnoc2)c(O)c1=O [Example 124]
endpoint result: < 100 nM

molecule: Cn1c(-c2cc(Cl)cc(Cl)c2)nc(C(=O)Nc2cnoc2)c(O)c1=O [Example 30]
endpoint result: 100 to 1000 nM

molecule: Cc1c(Br)cccc1-c1nc(C(=O)Nc2cnoc2)c(O)c(=O)n1C [Example 5]
endpoint result: < 100 nM

molecule: C[C@H](Cc1ccccc1)c1nc(C(=O)Nc2cnoc2)c(O)c(=O)n1C [Example 79]
endpoint result: < 100 nM

molecule: CNC(=O)c1cc(C)cc(-c2nc(C(=O)Nc3cnoc3)c(O)c(=O)n2C)c1 [Example 55]
endpoint result: < 100 nM

molecule: Cn1c(N2CC(OCc3ccccc3)C2)nc(C(=O)Nc2cnoc2)c(O)c1=O [Example 123]
endpoint result: 100 to 1000 nM

molecule: Cn1c([C@H]2CCCN(C(=O)Cc3ccc(F)c(F)c3)C2)nc(C(=O)Nc2cnoc2)c(O)c1=O [Example 91]
endpoint result: 100 to 1000 nM

molecule: Cn1c(C2CCCN(Cc3ccccc3)C2)nc(C(=O)Nc2cnoc2)c(O)c1=O (stereo not drawn) [Example 39]
endpoint result: 1000 to 10000 nM

molecule: Cn1c([C@H]2CCCN(C(=O)c3ccc(F)c(Cl)c3)C2)nc(C(=O)Nc2cnoc2)c(O)c1=O [Example 88]
endpoint result: < 100 nM

molecule: Cc1ccc(Br)cc1-c1nc(C(=O)Nc2cnoc2)c(O)c(=O)n1C [Example 4]
endpoint result: 100 to 1000 nM

molecule: Cn1c(N2CCC[C@@H]2c2cccnc2)nc(C(=O)Nc2cnoc2)c(O)c1=O [Example 102]
endpoint result: 100 to 1000 nM

molecule: Cc1cc(-c2nc(C(=O)Nc3cnoc3)c(O)c(=O)n2C)cc(N2CCOCC2)c1 [Example 31]
endpoint result: 100 to 1000 nM

molecule: Cc1cc(C(=O)N(C)C)cc(-c2nc(C(=O)Nc3cnoc3)c(O)c(=O)n2C)c1 [Example 36]
endpoint result: 100 to 1000 nM

molecule: Cn1c(N2CC[C@@H](c3ccccc3)C2)nc(C(=O)Nc2cnoc2)c(O)c1=O [Example 109]
endpoint result: < 100 nM

molecule: Cn1c(-c2cccc(Br)c2OCCO)nc(C(=O)Nc2cnoc2)c(O)c1=O [Example 15]
endpoint result: < 100 nM

molecule: Cn1c(C2CCCCN2C(=O)OC(C)(C)C)nc(C(=O)Nc2cnoc2)c(O)c1=O (stereo not drawn) [Example 14]
endpoint result: 100 to 1000 nM

molecule: Cn1c(N2CCCC[C@@H]2CCO)nc(C(=O)Nc2cnoc2)c(O)c1=O [Example 107]
endpoint result: < 100 nM

molecule: Cn1c(C2CCCN(C(=O)c3cccc(Cl)c3)C2)nc(C(=O)Nc2cnoc2)c(O)c1=O (stereo not drawn) [Example 45]
endpoint result: < 100 nM

molecule: Cn1c(N2CCC[C@H]2c2ccccc2)nc(C(=O)Nc2cnoc2)c(O)c1=O [Example 112]
endpoint result: < 100 nM
